# assay.comment: chemical genetic growth profiling, strain panel (AID 1159580);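 also: tested at 20 µM; growth read once vehicle control cultures reached saturation at 30 °C; 1 = growth at the plate median or of vehicle wells; lower values mean less growth of the strain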
# experimental.parameters: S. cerevisiae deletion strains, growth OD, locus YDR137W, strain rgp1, stronger effect = lower value
Hit rate of the full screen: of about 5,500 compounds, about 2,000 (36%) were called active. Inconclusive results (about 18%) are left out. Some of the results follow.
test.readout: normalized growth

INSERT INTO measurements (compound, test_readout, numeric_result) VALUES
  ('CC1CC[C@@]2(OC1)O[C@H]1CC3C4CC[C@@H]5C[C@@H](O)CC[C@]5(C)C4CC[C@]3(C)[C@H]1[C@@H]2C (some centres undefined)', 'normalized growth', 0.984),
  ('CC[n+]1c(-c2ccccc2)c2cc(N)ccc2c2ccc(N)cc21', 'normalized growth', 0.997),
  ('CCC(c1ccc(O)cc1)C(CC)c1ccc(O)cc1 (centres undefined)', 'normalized growth', 0.415),
  ('OC1CC2CCCC(C1)N2Cc1ccccc1 (centres undefined)', 'normalized growth', 0.974),
  ('C[C@@H]1CC[C@@]2(OC1)OC1CC3C4CC=C5C[C@@H](O)CC[C@]5(C)C4CC[C@]3(C)C1[C@@H]2C (some centres undefined)', 'normalized growth', 0.991),
  ('C[C@@H]1CC[C@@]2(OC1)O[C@H]1CC3C4CC[C@H]5C[C@@H](O)CC[C@]5(C)C4CC[C@]3(C)[C@H]1[C@@H]2C (some centres undefined)', 'normalized growth', 1),
  ('CC1CCC2(OC1)OC1CC3C4CC[C@H]5C[C@@H](O)CC[C@]5(C)C4CC(=O)[C@]3(C)C1C2C (some centres undefined)', 'normalized growth', 1.02),
  ('CCC(N)C(O)c1ccc(O)c(O)c1 (centres undefined)', 'normalized growth', 1.02),
  ('C[C@@H]1CC[C@@]2(NC1)O[C@H]1C[C@H]3C4CC=C5C[C@@H](O)CC[C@]5(C)C4CC[C@]3(C)C1[C@@H]2C (some centres undefined)', 'normalized growth', 0.644);

====

# assay.comment: chemical genetic growth profiling, strain panel (AID 1159580);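 also: tested at 20 µM; growth read once vehicle control cultures reached saturation at 30 °C; 1 = growth at the plate median or of vehicle wells; lower values mean less growth of the strain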
# experimental.parameters: S. cerevisiae deletion strains, growth OD, locus YOL147C, strain pex11, stronger effect = lower value
In all, about 5,500 compounds went through this assay and about 2,000 (36%) were called active. Inconclusive results (about 18%) are left out. The list shows a part of the results.
test.readout: normalized growth

INSERT INTO measurements (compound, numeric_result) VALUES
  ('CCOC(=O)c1c(C)cc(OC)cc1O', 0.947),
  ('CCC(=O)c1c(O)cc(O)cc1O', 0.97),
  ('CC(C)c1c(O)ccc2c1CCC1[C@@](C)(CO)CCC[C@]21C (some centres undefined)', 0.942),
  ('COc1ccc2c(c1)CCC1C2CCC2(C)C1C[C@@H](O)C2O (some centres undefined)', 1),
  ('COC(=O)C[C@H]1C(C)(C)C2(Cl)O[C@@]34CC2C(=O)[C@]1(C)C3CC[C@]1(C)C4=CC(=O)O[C@H]1c1ccoc1 (some centres undefined)', 0.99),
  ('COc1cccc2c(C)cc(=O)[nH]c12', 0.945),
  ('CCC/C=C1\OC(=O)C2=C1CCC=C2', 0.986),
  ('CC12CCC3c4ccc(OCc5ccccc5)cc4CCC3C1C[C@@H](O)[C@@H]2O (some centres undefined)', 0.0612),
  ('CN1C(C)(C)CCCC1(C)C', 0.996),
  ('CN(C)c1nc(N)c(C(=O)N=C(N)N)nc1Cl', 1.01),
  ('NC(N)=NC(=O)c1nc(Cl)c(N2CCCCCC2)nc1N', 1),
  ('C[C@]12CCC3c4ccc(OS(=O)(=O)O)cc4CCC3C1CC[C@H]2O (some centres undefined)', 0.984),
  ('C[C@]12CCC3c4ccc(O)cc4CCC3C1C[C@@H](O)[C@@H]2O (some centres undefined)', 0.993),
  ('COC(=O)c1c(C)cc(OC)cc1O', 0.978),
  ('Cc1cc(OC(=O)c2c(C)cc(OC(=O)c3c(C)cc(O)cc3O)cc2O)cc(O)c1C(=O)O', 0.999),
  ('COc1ccc2c(c1)CCC1C2CC[C@@]2(C)C1CC[C@@H]2O (some centres undefined)', 0.695),
  ('NC(N)=NC(=O)c1nc(Cl)c(N)nc1N', 1.02),
  ('CC(=O)OC1CN2CCC1CC2 (centres undefined)', 0.989),
  ('C[C@@H]([C@H](O)c1ccccc1)N(C)C', 1.01),
  ('COc1ccc2c3c1OC1C(O)CC=C4C(C2)N(C)CCC431 (centres undefined)', 1),
  ('CC(=O)Oc1ccc2c(c1C(C)C)CCC1C(C)(C)CCC[C@]21C (some centres undefined)', 0.999),
  ('C=C[C@H]1CN2CC[C@H]1C[C@@H]2[C@@H](OC(=O)OCC)c1ccnc2ccc(OC)cc12', 1.02),
  ('CCOC(=O)NC1=C(C2CC2)C(=O)C(NC(=O)OCC)=C(C2CC2)C1=O', 0.986),
  ('COC(=O)[C@]1(C)CCC[C@]2(C)c3ccc(C(C)C)cc3C(=O)CC12 (some centres undefined)', 1);

These measurements were taken from PubChem BioAssay AID1159580.
